Below: a set of entries, each annotated with reported inhibition of SARS-CoV-2 cytopathic effect.
- Test system: Vero E6 infected with SARS-CoV-2
- Method Summary: inhibition of SARS-CoV-2 cytopathic effect; higher = more antiviral protection, active = above 15
- Particulars: 8.33 nM; 48 h
The answer is to be given in %; state only the numeric part.

Consider the reported inhibition of SARS-CoV-2 cytopathic effect for these compounds:
{"Compound": "CC(=O)c1cc2c(o1)C(=O)c1ccccc1C2=O [napabucasin]", "Unit Abbrev": "%", "Recorded Value": 1.91}
{"Compound": "CN[C@@H](C)C(=O)N[C@H](C(=O)N1CCC[C@H]1C(=O)Nc1snnc1-c1ccccc1)C1CCCCC1", "Unit Abbrev": "%", "Recorded Value": -0.64}
{"Compound": "CCCC(=O)C1CCN(c2ncnc3c2CN(C(=O)c2ccc(-c4ccccc4)cc2)CC3)CC1", "Unit Abbrev": "%", "Recorded Value": -1.68}
{"Compound": "Cc1ccc2nc(N)[nH]c(=O)c2c1Sc1ccncc1 [nolatrexed]", "Unit Abbrev": "%", "Recorded Value": 3.11}
{"Compound": "CCN(c1cc(C#CCN2CCOCC2)cc(C(=O)NCc2c(C)cc(C)[nH]c2=O)c1C)[C@H]1CC[C@H](N(C)CCOC)CC1", "Unit Abbrev": "%", "Recorded Value": -1.99}

In plain terms, CCCCCCCCCCCCCCCC[n+]1ccccc1 [cetylpyridinium] has a documented inhibition of SARS-CoV-2 cytopathic effect of 0.22

The reported value for CCC1(CC)C(=O)C=CNC1=O [pyrithyldione] in terms of inhibition of SARS-CoV-2 cytopathic effect is 0.58

Reported inhibition of SARS-CoV-2 cytopathic effect of COc1nccc(-c2c(-c3ccc(F)cc3)ncn2C2CCNCC2)n1 : 0.83

// inhibition of SARS-CoV-2 cytopathic effect lookup, compound = COc1cc(C(=O)N(CC[C@H]2CCCN2C)C/C(C)=C/c2ccccc2F)cc(OC)c1OC (racemic) , result: -1.9

----------
Entries annotated with measured inhibition of SARS-CoV-2 cytopathic effect
- Test system: Vero E6 infected with SARS-CoV-2
- Method Summary: inhibition of SARS-CoV-2 cytopathic effect; higher = more antiviral protection, active = above 15
- Particulars: 833.33 nM; 48 h
Field: numeric (%). Do not append units.

{"Compound": "Cn1ncc(Cl)c1-c1cc(C(=O)N[C@H](CN)Cc2ccc(F)c(F)c2)oc1Cl", "Unit Abbrev": "%", "Recorded Value": 0.21}
{"Compound": "COc1cc2c(NC3CCN(C4CCCCC4)CC3)nc(N3CCCN(C(C)C)CC3)nc2cc1OCCCN1CCCCC1", "Unit Abbrev": "%", "Recorded Value": -2.24}
{"Compound": "CCNC(=O)N1CCN(CCCC(c2ccc(F)cc2)c2ccc(F)cc2)CC1 [amperozide]", "Unit Abbrev": "%", "Recorded Value": -7.67}
{"Compound": "Cc1onc(-c2ccccc2Cl)c1C(=O)N[C@@H]1C(=O)N2[C@@H]1SC(C)(C)[C@@H]2C(=O)O", "Unit Abbrev": "%", "Recorded Value": 3.43}
{"Compound": "COC(=O)N[C@H](C(=O)N[C@@H](Cc1ccccc1)[C@@H](O)CN(Cc1ccc(-c2ccccn2)cc1)NC(=O)[C@@H](NC(=O)OC)C(C)(C)C)C(C)(C)C", "Unit Abbrev": "%", "Recorded Value": -0.5}
{"Compound": "CN(C)CCOc1cc(-c2cn[nH]c2)ccc1NC(=O)C1COc2ccccc2O1 (stereo not drawn)", "Unit Abbrev": "%", "Recorded Value": -5.69}
{"Compound": "CC[C@@H](CO)NCCN[C@@H](CC)CO", "Unit Abbrev": "%", "Recorded Value": 5.12}

Okay, now this compound:
Given item CN(C)Cc1cccc(N/C(=C2\C(=O)Nc3cc(C(N)=O)ccc32)c2ccccc2)c1 , the value recorded as its inhibition of SARS-CoV-2 cytopathic effect is 2.08

----------
- System: Vero E6 infected with SARS-CoV-2
- Method Summary: inhibition of SARS-CoV-2 cytopathic effect; higher = more antiviral protection, active = above 15
- Particulars: 10000 nM; 48 h
Measured Attribute: inhibition of SARS-CoV-2 cytopathic effect (%)
Give the value in % but do not write % after it.

{"Compound": "Nc1ccc(C(=O)O)cc1 [potassium-p-aminobenzoate]", "Target Under Test": "Vero E6 infected with SARS-CoV-2", "Unit Abbrev": "%", "Recorded Value": -5}
{"Compound": "C[C@]12C/C(=C/O)C(=O)C[C@@H]1CC[C@@H]1[C@@H]2CC[C@@]2(C)[C@H]1CC[C@]2(C)O", "Target Under Test": "Vero E6 infected with SARS-CoV-2", "Unit Abbrev": "%", "Recorded Value": 1.57}
{"Compound": "CO[C@@]1(NC(=O)C2SC(=C(C(N)=O)C(=O)O)S2)C(=O)N2C(C(=O)O)=C(CSc3nnnn3C)CS[C@@H]21 (stereo partly drawn)", "Target Under Test": "Vero E6 infected with SARS-CoV-2", "Unit Abbrev": "%", "Recorded Value": 0.24}
{"Compound": "COc1cc2ncc(-c3ccccc3)nc2cc1OC", "Target Under Test": "Vero E6 infected with SARS-CoV-2", "Unit Abbrev": "%", "Recorded Value": -1.96}
{"Compound": "CC(=O)N[C@@H](CCC(N)=O)C(=O)O [aceglutamide]", "Target Under Test": "Vero E6 infected with SARS-CoV-2", "Unit Abbrev": "%", "Recorded Value": -5.34}

Memo: COc1cc(OC)c2c(=O)[nH]c(-c3cc(C)c(OCCO)c(C)c3)nc2c1 , reported inhibition of SARS-CoV-2 cytopathic effect: -0.84

Lab note: C[C@H]1O[C@@H](Oc2c(-c3cc(O)c(O)c(O)c3)oc3cc(O)cc(O)c3c2=O)[C@@H](O)[C@@H](O)[C@@H]1O gave inhibition of SARS-CoV-2 cytopathic effect of -1.34

Form field inhibition of SARS-CoV-2 cytopathic effect, entry O=C(CCCl)NCc1ccccc1 [beclamide] : -1.73

----------
Let's look at some compounds and their measured inhibition of SARS-CoV-2 cytopathic effect.
- Tested on: Vero E6 infected with SARS-CoV-2
- Method Summary: inhibition of SARS-CoV-2 cytopathic effect; higher = more antiviral protection, active = above 15
- Particulars: 8.33 nM; 48 h
Respond with the bare value in %.

Some compounds with recorded inhibition of SARS-CoV-2 cytopathic effect:
{"Compound": "COc1ccc(-c2cc(C(F)F)nn2-c2ccc(S(N)(=O)=O)cc2)cc1F", "Target Under Test": "Vero E6 infected with SARS-CoV-2", "Recorded Value": -0.35}
{"Compound": "C[C@H]1NC(=O)NC1=O", "Target Under Test": "Vero E6 infected with SARS-CoV-2", "Recorded Value": -0.75}
{"Compound": "O=C1c2c(O)cccc2C([C@@H]2O[C@H](CO)[C@@H](O)[C@H](O)[C@H]2O)c2cc(CO)cc(O)c21 (some centres undefined)", "Target Under Test": "Vero E6 infected with SARS-CoV-2", "Recorded Value": 0.1}

inhibition of SARS-CoV-2 cytopathic effect for N[C@H]1C[C@@H]1c1ccc(-c2cccc(O)c2)cc1 is -1.45

Entry OCCN1C[C@H](O)[C@@H](O)[C@H](O)[C@H]1CO — recorded inhibition of SARS-CoV-2 cytopathic effect = -3.41

Reported inhibition of SARS-CoV-2 cytopathic effect for Cc1ccc(-c2nc3ccc(C)cn3c2CC(=O)N(C)C)cc1 was 1.21

// sample CC(C)(O)CC(=O)O [beta-hydroxy-beta-methylbutyrate] , its inhibition of SARS-CoV-2 cytopathic effect was -2.04

inhibition of SARS-CoV-2 cytopathic effect recorded for this compound, OCCCCO , is -1.22

// recorded inhibition of SARS-CoV-2 cytopathic effect for O=C(O)c1ccccc1Nc1cccc(C(F)(F)F)c1 : 0.57

Measured inhibition of SARS-CoV-2 cytopathic effect of C[n+]1ccc(C(=O)NCc2ccccc2)cc1 [enisamium-iodide] : 7.37

Data point: CN(C)c1cc(CNCC(C)(C)C)c(O)c2c1C[C@H]1C[C@H]3[C@H](N(C)C)C(O)=C(C(N)=O)C(=O)[C@@]3(O)C(O)=C1C2=O ; inhibition of SARS-CoV-2 cytopathic effect = 0.51

Sample c1ccc2c(c1)CCC[C@H]2Nc1nc2ccccc2[nH]1 ; inhibition of SARS-CoV-2 cytopathic effect observed: 2.66

Entry O=C1Nc2cc(Cl)c(Cl)cc2N2CCNC[C@H]12 ; inhibition of SARS-CoV-2 cytopathic effect = -0.54

The value of inhibition of SARS-CoV-2 cytopathic effect measured for the compound C=CC1=C(C)C2=CC3=NC(=C(CC(=O)O)C4=NC(=C(C)C4=C(O)O)C=c4[nH]c(c(C)c4CC)=CC1=N2)C(CCC(=O)O)C3C (centres undefined) turned out to be -1.3

Entry CC(=O)N(c1onc(C)c1C)S(=O)(=O)c1ccc(N)cc1 , inhibition of SARS-CoV-2 cytopathic effect reported as -3.48

get_value(item= Cc1ccc(NC(=O)c2ccc(CN3CCN(C)CC3)cc2)cc1Nc1nccc(-c2cccnc2)n1 , readout=inhibition of SARS-CoV-2 cytopathic effect) returns 1.75

Reported inhibition of SARS-CoV-2 cytopathic effect for c1ccc2c(Cc3c[nH]c4ccccc34)c[nH]c2c1 was 0.3

The reported value for C#C[C@]1(O)CC[C@H]2[C@@H]3CCC4=CC(=O)CCC4=C3C=C[C@@]21CC in terms of inhibition of SARS-CoV-2 cytopathic effect is 0.8

Measured inhibition of SARS-CoV-2 cytopathic effect of OC1=c2ccccc2=C(NC2CCCCC2)/C1=C\c1ccccc1 : 0.22
